- System: NCI-H358 (K-Ras G12C)
- Test name: CellTiter-Glo cell viability assay, NCI-H358
- Assay type: cell-based, human
- Condition: Homo sapiens, NCI-H358, read-out: H358 Cell Viability assay data (K-Ras G12C, IC50, uM), Table 5
Reported IC50 values are given for each entry in this list.

>>> reading("C=CC(=O)N1CC[C@H](C(=O)N(C)[C@H](C(=O)N[C@H]2Cc3nc(cs3)-c3ccc4c(n3)c(c(-c3cccnc3[C@H](C)OC)n4CC)CC(C)(C)COC(=O)[C@@H]3CCCN(N3)C2=O)C(C)C)C1")
"0.1 to 1 µM"

Prompt: // lookup IC50 | system=NCI-H358 (K-Ras G12C) | key= CO[C@@H](COC1CN(C(=O)C#CC(C)(C)N(C)C)C1)C(=O)N[C@H]1Cc2cccc(c2)-c2ccc3c(c2)c(c(-c2cccnc2[C@H](C)OC)n3CC(F)(F)F)CC(C)(C)COC(=O)[C@@H]2CCCN(N2)C1=O
Response: < 0.01 µM

Prompt: Fill in the recorded IC50 for this compound, with NCI-H358 (K-Ras G12C) as test system: C=CS(=O)(=O)N1CC[C@H](C(=O)N(C)[C@H](C(=O)N[C@H]2Cc3cccc(c3)-c3ccc4c(c3)c(c(-c3cccnc3[C@H](C)OC)n4CC)CC(C)(C)COC(=O)[C@@H]3CCCN(N3)C2=O)C(C)C)C1 (atropisomer, axis not shown)
Response: < 0.01 µM

Prompt: Field: IC50 (NCI-H358 (K-Ras G12C)). Entry: CCn1c(-c2cccnc2[C@H](C)OC)c2c3cc(ccc31)-c1csc(n1)C[C@H](NC(=O)[C@H](C(C)C)N(C)C(=O)N(C)C1CN(C(=O)/C=C/C(C)(C)O)C1)C(=O)N1CCC[C@H](N1)C(=O)OCC(C)(C)C2
Response: 0.1 to 1 µM

Prompt: # returns recorded IC50 (system: NCI-H358 (K-Ras G12C)) for CCn1c(-c2cccnc2[C@H](C)OC)c2c3cc(ccc31)-c1csc(n1)C[C@H](NC(=O)[C@H](C(C)C)N(C)C(=O)N1CC(N(C)C(=O)C#CC(C)(C)N3CCC3)C1)C(=O)N1CCC[C@H](N1)C(=O)OCC(C)(C)C2
Response: < 0.01 µM

Prompt: What value of IC50 on NCI-H358 (K-Ras G12C) does CCn1c(-c2cccnc2COC)c2c3cc(ccc31)-c1cc(O)cc(c1)C[C@H](NC(=O)[C@H](C(C)C)N(C)C(=O)[C@H]1CCN(C(=O)C#CCOC)C1)C(=O)N1CCC[C@H](N1)C(=O)OCC(C)(C)C2 have?
Response: < 0.01 µM

Prompt: Hello, I am looking for reported IC50 with NCI-H358 (K-Ras G12C) for C=CC(=O)N1CC[C@H](C(=O)N(C)[C@H](C(=O)N[C@H]2Cc3cc(O)cc(c3)-c3ccc4c(c3)c(c(-c3cc(CN(C)C)cnc3COC)n4CC)CC(C)(C)COC(=O)[C@@H]3CCCN(N3)C2=O)C(C)C)C1 . Could you help?
Response: 0.01 to 0.1 µM

Prompt: Form field - read-out: IC50; system: NCI-H358 (K-Ras G12C); submitted item: C=CS(=O)(=O)N1CC[C@H](C(=O)N(C)[C@H](C(=O)N[C@H]2Cc3cc(O)cc(c3)-c3ccc4c(c3)c(c(-c3cccnc3[C@H](C)OC)n4CC)CC(C)(C)COC(=O)[C@@H]3CCCN(N3)C2=O)C(C)C)C1
Response: < 0.01 µM
